Molecular target: κ-opioid receptor (Homo sapiens (Human), UniProt P41145)
Test: κ-opioid receptor [35S]GTPγS functional assay, HEK-293 or CHO cells (Table 4)
Format: biochemical
Settings: κ GTP
Measured pEC50, listed per entry for reference.
Scale note: pEC50 = -log10(concentration in M).

Challenge: Please report pEC50 with κ-opioid receptor (Homo sapiens (Human), UniProt P41145) for item O=C(NCc1ccccc1)[C@H]1C[C@]23CCN(CC4CC4)[C@H](Cc4ccc(O)cc42)[C@]3(O)C1 [Compound 34] .
Response given: 10.03

---

Biological target: κ-opioid receptor (Homo sapiens (Human))
Assay: κ-opioid receptor [35S]GTPγS functional assay, U-2 OS cells (Table 5)
Type: biochemical
Conditions: κ GTP
MEASUREMENT KIND: pEC50
Give only the number. pEC50 is defined as minus log10 of concentration in molar units.

Below, each entry is followed by its recorded pEC50 result.
compound="Cc1ccc(CNC(=O)[C@H]2C[C@]34CCN(CC5CC5)[C@H](Cc5ccc(O)cc53)[C@]4(O)C2)cc1 [Compound 38]" readout_value=10.19
compound="NC(=O)CNC(=O)[C@@H]1C[C@]23CCN(CC4CC4)[C@H](Cc4ccc(O)cc42)[C@]3(O)C1 [Compound 64]" readout_value=8.45
compound="N=C(N)NCCCCNC(=O)[C@@H]1C[C@]23CCN(CC4CC4)[C@H](Cc4ccc(O)cc42)[C@]3(O)C1 [Compound 7]" readout_value=8.94

Challenge: Tell us which pEC50 value is on record for CN1CC[C@]23C[C@@H](C(N)=O)C[C@@]2(O)[C@H]1Cc1ccc(O)cc13 [Compound 77]
Response given: 5.94

Challenge: # return recorded pEC50 for entry N[C@H]1CC23CCN(CC4CC4)[C@H](Cc4ccc(O)cc42)[C@]3(O)C1 (stereo in doubt) [Compound 29]
Response given: 9.21

Challenge: Recall and state the measured pEC50 for Cc1ccc(CNC(=O)[C@@H]2C[C@]34CCN(CC5CC5)[C@H](Cc5ccc(O)cc53)[C@]4(O)C2)cc1 [Compound 37] .
Response given: 9.01

Challenge: For the compound COc1ccc2c(c1)[C@]13CCN(CC4CC4)[C@H](C2)[C@]1(O)C[C@H](C(N)=O)C3 [Compound 11] , give its reported pEC50.
Response given: 5.87

Challenge: Could you please provide reported pEC50 for CC(C)CNC(=O)[C@@H]1C[C@]23CCN(CC4CC4)[C@H](Cc4ccc(O)cc42)[C@]3(O)C1 [Compound 35] ? Thanks!
Response given: 8.11
